These measurements were taken from patent US10221160B2.

biological target: CYP3A4 (Homo sapiens (Human))
Sequence (P08684 whole entry): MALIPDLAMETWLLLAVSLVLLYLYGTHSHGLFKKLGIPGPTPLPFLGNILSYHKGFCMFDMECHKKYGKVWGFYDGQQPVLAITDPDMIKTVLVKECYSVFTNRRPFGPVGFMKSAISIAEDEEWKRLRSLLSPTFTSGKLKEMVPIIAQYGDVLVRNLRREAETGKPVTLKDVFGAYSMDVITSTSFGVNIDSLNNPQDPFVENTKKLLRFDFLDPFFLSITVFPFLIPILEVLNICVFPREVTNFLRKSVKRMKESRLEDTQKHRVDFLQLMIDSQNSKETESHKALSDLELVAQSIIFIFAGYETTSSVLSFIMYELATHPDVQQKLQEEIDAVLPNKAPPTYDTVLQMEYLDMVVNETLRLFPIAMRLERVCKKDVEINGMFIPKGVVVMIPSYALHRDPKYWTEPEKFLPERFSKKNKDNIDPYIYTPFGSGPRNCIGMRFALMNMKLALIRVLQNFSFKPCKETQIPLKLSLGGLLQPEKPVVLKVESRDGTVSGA
pIC50: −log10 of the molar value.
experimental.readout: pIC50

> print(dat)
                                   molecule     val
1  OC(Cn1cnnn1)(c1ccc(F)cc1F)C(F)(F)c1ccc(-c2ccc(C(F)(F)F)cc2)cn1 (stereo not shown) [Example 2]  < 4.22
